# testProtocol: Displacement of [3H]gabapentin binding to voltage gated calcium channel alpha2delta from rat cerebral cortex by scintillation counting
# Assay type: tissue-based
measuredProperty: pKi
One number for each entry, as −log10 of the molar value.

pKi lookup needed for `CC(C)C[C@H](CN)CC(=O)NCCc1c[nH]c2ccc(O)cc12` , thanks.
4.96

---

# testProtocol: Displacement of [3H]gabapentin binding to voltage gated calcium channel alpha2delta from rat cerebral cortex by scintillation counting
# Assay type: tissue-based
measuredProperty: pIC50
Answers are plain numbers, as −log10 of the molar value.

Query: pIC50; subject: `CC(C)C[C@H](CN)CC(=O)NCCc1c[nH]c2ccc(O)cc12`
4.89

---

Give inhibition for every item shown.
# Species: Rattus norvegicus
# testProtocol: Inhibition of [3H]gabapentin binding to voltage gated calcium channel alpha2delta from rat cerebral cortex at 10 uM by scintillation counting
# Assay type: tissue-based
One number for each entry, in %.

Some compounds with known inhibition results, for comparison:
Field request: inhibition | item: `CC(C)C[C@H](CN)CC(=O)N[C@@H]1O[C@H](CO)[C@@H](O)[C@H](O)[C@H]1O`
17

Now consider CC(C)C[C@H](CN)CC(=O)N[C@H]1C(O)O[C@H](CO)[C@@H](O)[C@@H]1O (some centres not stated) and answer again.
18

Same for CC(C)C[C@H](CN)CC(=O)N[C@H]1C(O)O[C@H](CO)[C@H](O)[C@@H]1O (some centres not stated)
9

One more compound: CC(C)C[C@H](CN)CC(=O)N[C@@H]1C(O)O[C@H](CO)[C@@H](O)[C@@H]1O (some centres not stated)
14

Would you mind doing `CC(C)C[C@H](CN)CC(=O)O` as well?
92

Value sought for every listed compound: inhibition.
1. CC(C)C[C@H](CN)CC(=O)NCCc1c[nH]c2ccccc12
2. CC(C)C[C@H](CN)CC(=O)NCCc1c[nH]c2ccc(O)cc12

1: 18; 2: 51
